System: NCI-H226 lung
assay-name: NCI-60 one-dose screen, 48 h
conditions: 10 µM unless noted
About 83,000 compounds went through this panel and 20% of them were active in at least one assay; those are over-represented in the sample as a whole. The source made the active and inactive calls. The calls were made as follows: active = growth percent below 10; inactive = the rest.
Give your call using only these classes: yes = active, no = inactive

Solved entries (count: 5):
{"columns": ["compound", "qualitative-label"],
 "data": [
  ["N#Cc1ccc2c(c1)C(=O)c1c-2n(CCCN)c(=O)c2cc([N+](=O)[O-])ccc12", "yes"],
  ["O=C1Nc2ccccc2/C1=C/c1nc2ccccc2c(=O)[nH]1", "no"],
  ["CC(C)=CCCC(C)c1ccc(C)c2c1OCN(CCCCCO)C2 (stereo unspecified)", "no"],
  ["CCC(=O)Oc1ccc(-c2ccccc2)cc1Br", "no"],
  ["CCCCCCC12CCC(=O)N1CCc1cncn12 (stereo unspecified)", "no"]
]}

Let us examine a further case.
Exercise: Just curious, what result did Nc1ncc(-c2ccc3ncnc(Nc4cccc(Cl)c4)c3c2)cn1 get here?
Key: no
